measurement_notes: reduction of polyQ htt aggregates in cells – imaging, exon1htt(103Q)mCFP cells, high-content imaging, primary screen (AID 483);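 further: compound exposure lasted 3 days before fixation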
applied_conditions: exon1htt(103Q)mCFP cell line, aggregate imaging, at 2 µM
Calls of active or inactive are those of the source.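 How the source made its calls: active means visual image review flags a hit and inhibition of aggregation exceeds 20%; inconclusive means visual hit but inhibition at or below 20%; inactive means no hit on visual image review.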
In this exercise, the only acceptable responses are y (active), n (inactive)

### Prompt What was the test verdict on CCN(CC)CCOC(=O)c1ccc(NC(=O)COc2cc(=O)n(CC)c3ccccc23)cc1 ?
### Response n

### Prompt Check CN(CCCNC(=O)c1cn(C)c2ccc(S(=O)(=O)N(C)C)cc2c1=O)c1ccccc1 too.
### Response n

### Prompt Check CCc1ccc(N2CC(C(=O)OCC(=O)Nc3cc(C)on3)CC2=O)cc1 (stereo unspecified) too.
### Response n

### Prompt Check CCOc1ncccc1C(=O)OCC(=O)N1CC(=O)Nc2ccccc21 too.
### Response n

Next:
### Prompt What was the test verdict on CCn1c(SCC(=O)c2ccc(C)cc2)nnc1-c1ccoc1C ?
### Response n

### Prompt Check COc1ccc(-c2cc3c(=O)n(CC(=O)NC4CCN(Cc5ccccc5)CC4)ncn3n2)cc1 too.
### Response n

### Prompt Check O=C1CCCCCN1CSc1nc2ccccc2s1 too.
### Response n

### Prompt Check C=CCn1c(COc2ccccc2)nnc1SCC(=O)C(C)(C)C too.
### Response n

### Prompt Check Cc1c(Cl)cnc(NC(=O)COC(=O)C(NC(=O)c2ccco2)C(C)C)c1Cl (stereo unspecified) too.
### Response n

### Prompt Check O=C(NC1CCCC1)C1CC1c1ccccc1 (stereo unspecified) too.
### Response n

### Prompt Check CCOC(=O)CN1C(=O)C(=O)c2cccc(C)c21 too.
### Response n

### Prompt Check CCOC(=O)CCc1c(C)nc2cc(-c3ccc(F)cc3)[nH]n2c1=O too.
### Response n

### Prompt Check COc1ccc2[nH]c(=O)c(CN(Cc3cccs3)S(=O)(=O)c3cccc4nsnc34)cc2c1 too.
### Response n

### Prompt Check CC(=O)NC(C)c1nc2ccccc2n1C(C)C (stereo unspecified) too.
### Response n

### Prompt Check CCOc1cc(C2NC(=O)NC(O)(C(F)(F)F)C2C(=O)c2ccccc2)ccc1OC (stereo unspecified) too.
### Response n

---

measurement_notes: inhibitors of TNFa-induced NFkB p65 translocation, primary screen, imaging, HUVEC, MLSMR starter and 10KST1 sets (AID 438);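 further: compound added about 3h40 before a 20 min TNFalpha stimulation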
applied_conditions: HUVEC TNFa-induced p65 nuclear translocation; measured here: nuclei count (cytotoxicity indicator), at 2.08 µM
Rule: cell count of 400 or more gives class 1; anything lower gives class 0.

### Prompt Reported cell count at or above 400? CC1CN(Cc2nc3c(c(=O)[nH]c(=O)n3C)n2CC(N)=O)CC(C)O1 (stereo not drawn)
### Response class 1

### Prompt Check CCCOC(=O)c1ccc(-c2c(C)noc2-c2ccc(OC)cc2O)o1 too.
### Response class 0

### Prompt Check O=C(Cn1ccc2ccccc2c1=O)Nc1ccc2c(c1)OCO2 too.
### Response class 0

### Prompt Check CCCCN(C)C(=O)c1ccc(CS(=O)(=O)c2ccccc2C)o1 too.
### Response class 0

### Prompt Check CCn1c(Cc2ccccc2)nnc1SCC(=O)Nc1cc(C)on1 too.
### Response class 1

Next:
### Prompt Reported cell count at or above 400? COc1nc(NCCc2ccc(OC)c(OC)c2)nc(NC(C)(C)CO)n1
### Response class 0

### Prompt Check O=C(C1CCCO1)N1CCN(Cc2nc3ccccc3c(=O)[nH]2)CC1 (stereo not drawn) too.
### Response class 1

### Prompt Check O=S(=O)(NCC(c1cccnc1)N1CCN(c2ccccc2)CC1)c1cc(F)ccc1F (stereo not drawn) too.
### Response class 1

### Prompt Check COCCn1nnnc1C(c1ccccc1OC)N1CCc2ccccc2C1 (stereo not drawn) too.
### Response class 1

Data provenance: PubChem BioAssay
